Target: T1, monkey GFRα3 expressed with a C-terminal myc-myc-hexahistidine tag (monkey (Mf), UniProt O60609 32-374 (human entry), limits assumed)
T1 construct: also called MfGFRα3-mmh; MfGFRα3-mmH
T1 chain: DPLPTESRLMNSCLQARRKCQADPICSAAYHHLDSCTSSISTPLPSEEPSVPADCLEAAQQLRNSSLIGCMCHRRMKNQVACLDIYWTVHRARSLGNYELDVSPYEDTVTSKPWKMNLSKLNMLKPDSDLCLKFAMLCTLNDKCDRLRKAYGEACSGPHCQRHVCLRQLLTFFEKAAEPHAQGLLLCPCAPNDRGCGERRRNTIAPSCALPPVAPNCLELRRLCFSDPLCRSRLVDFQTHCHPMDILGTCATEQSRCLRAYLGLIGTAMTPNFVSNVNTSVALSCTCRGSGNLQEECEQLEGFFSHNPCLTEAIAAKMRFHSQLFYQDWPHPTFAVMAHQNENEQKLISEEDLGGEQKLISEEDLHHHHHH
Assay: SPR, Ab captured, 37C
# Kd values compiled below
Quick reminder: number only, in nM, skip the unit.

binder	quantity	dataValue
H4H2352S (antibody, human IgG4, V domains shown, human IgG4 Fc (H4H); also called H4H2352S-1) VH: EVQLVQSGAEVKKPGASVKVSCKASGYTFTNYGITWVRQAPGQGLEWMGWISAYNGNTGYAQKFQGRVTMTTDTSTSTAYMELRSLRSDDTAVYYCAREDYDFWRAFDIWGQGTMVTVSS VL: EIVLTQSPGTLSLSPGERATLSCRASQSVSSTYLAWLQQKPGQAPRLLIYGASSRATGIPDRFSGSGSGTDFTLTINRLEPEDFAVYYCQQYAYSPYTFGQGTKLEIK	Kd	0.117
H2aM2210N (antibody, mouse IgG2, V domains shown, chimeric, mouse IgG2 Fc (H2M/H2aM); also called H2M2210N) VH: EVQLLESGGGLVQPGGSLRVSCAASGFTFSTSAMSWVRQAPGKGLEWVSGISGIGGGSTYYADSVKGRFTISRDNSKNTLYLQMNSLRAEDTAVYFCAKFYKWNSYIFDLWGQGTMVTVSS VL: EIVLTQSPDTLSLSPGERATLSCRASQSVSSSYFAWYQQKPGQAPRLLMYSASSRATGIPDRFSGSGSGTDFSLTISRLEPEDFAVYYCQQYGRSLTFGGGTKVEIK	Kd	76.4

Pending binder:
For H4H2345S (antibody, human IgG4, V domains shown, human IgG4 Fc (H4H)) VH: EVQLVESGGGLVRPGRSLRLSCAASGFTFDNYAMHWVRQVPGKGLEWVSGITWNSVSLGYADSVKGRFTISRDNAQNSLYLQMNSLRTVDTALYYCAKDRWGGSYYFDFWGQGTLVTVSS VL: DIVMTQSPSSLSASVGDRVTITCRASQGISNYLAWYQQKPGKVPKLLIYSASTLQSGVPSRFSGSGSGTDFTLTISNLQPEDFATFFCQKYNSAPTFGGGTKVEIK the binder record lists Kd as 26.3

Data origin: patent US20140056903A1
